experimental_target: IDO1 (Homo sapiens, UniProt P14902)
Sequence (P14902 whole entry): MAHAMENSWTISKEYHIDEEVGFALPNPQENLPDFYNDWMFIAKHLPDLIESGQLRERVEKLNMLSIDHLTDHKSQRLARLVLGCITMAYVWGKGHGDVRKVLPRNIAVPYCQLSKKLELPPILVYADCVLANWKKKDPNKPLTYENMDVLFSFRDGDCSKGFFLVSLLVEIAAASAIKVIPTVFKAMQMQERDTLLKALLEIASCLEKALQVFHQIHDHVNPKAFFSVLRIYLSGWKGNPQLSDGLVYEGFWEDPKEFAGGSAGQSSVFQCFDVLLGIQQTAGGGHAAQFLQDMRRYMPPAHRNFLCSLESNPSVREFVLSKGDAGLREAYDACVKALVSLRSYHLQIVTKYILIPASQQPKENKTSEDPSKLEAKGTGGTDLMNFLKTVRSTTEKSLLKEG
test: IDO1 Cellular Assay in HeLa Cells Stimulated with IFNγ
Assay type: cell-based
conditions: read-out: HeLa Cell Potency, IC50
pIC50: −log10 of the molar value.
Below, each entry is listed alongside its reported pIC50.
property_measured: pIC50

INSERT INTO assay_data (compound, property_measured, observed_result) VALUES
  ('Cc1cccc(N2CCN(C(=O)Cn3nc(C(=O)N4CC[C@@H](O)C[C@@H]4C)c4c3C[C@H]3C[C@@H]43)CC2)c1C [Example 261]', 'pIC50', 9.02),
  ('Cc1cc(C)c(N2CCN(C(=O)Cn3nc(C(=O)N4C[C@@H](C)O[C@@H](C)C4)c4c3CCC4)CC2)cc1C', 'pIC50', 6.84),
  ('Cc1c(Cl)cccc1N1CCN(C(=O)Cn2nc(C(=O)N3CCC(O)CC3)c3c2CCC(F)C3)CC1 (centres unmarked) [Example 372]', 'pIC50', 8.63),
  ('Cc1cccc(N2CCN(C(=O)Cn3nc(C(=O)N4C[C@@H](C)O[C@@H](C)C4)c4c3CC3CC43)CC2)c1C (some centres unmarked)', 'pIC50', 8.73),
  ('C[C@@H]1CN(C(=O)c2nn(CC(=O)N3CCN(c4cccc5c4CCC5)CC3)c3c2CCC3)C[C@H](C)O1', 'pIC50', 8.18),
  ('Cc1cccc(N2CCN(C(=O)Cn3nc(C(=O)N4C[C@H](O)[C@@H](O)C4)c4c3CCC4)CC2)c1C', 'pIC50', 6.39),
  ('Cc1cccc(N2CCN(C(=O)Cn3nc(C(=O)N4CCC(NC(=O)C5CC5)CC4)c4c3C[C@H]3C[C@@H]43)CC2)c1C', 'pIC50', 8.98),
  ('Cc1cccc(N2CCN(C(=O)Cn3nc(C(=O)N4CCC(N5CCCC5=O)CC4)c4c3C[C@H]3C[C@@H]43)CC2)c1C', 'pIC50', 9.00),
  ('CC(=O)NC1CCN(C(=O)c2nn(CC(=O)N3CCN(c4cccc(C)c4C)CC3)c3c2CCC3)CC1', 'pIC50', 8.39),
  ('CC(=O)NC1CCN(C(=O)c2nn(CC(=O)N3CCN(c4cccc(C(F)(F)F)c4C)CC3)c3c2[C@@H]2C[C@@H]2C3)CC1', 'pIC50', 8.61),
  ('Cc1cccc(N2CCN(C(=O)Cn3nc(C(=O)N4CCN(C(=O)CO)CC4)c4c3C[C@H]3C[C@@H]43)C(C(F)F)C2)c1C (some centres unmarked) [Example 389]', 'pIC50', 7.32),
  ('Cc1c(N2CCN(C(=O)Cn3nc(C(=O)N4CCO[C@H](CO)C4)c4c3C[C@H]3C[C@@H]43)CC2)cccc1C(F)(F)F', 'pIC50', 8.67),
  ('Cc1c(Cl)cccc1N1CCN(C(=O)Cn2nc(C(=O)N3CCN(C(=O)CO)CC3)c3c2CCC(F)(F)C3)CC1', 'pIC50', 8.27),
  ('Cc1c(Cl)cccc1N1CCN(C(=O)Cn2nc(C(=O)N3CC[C@H](O)[C@H](F)C3)c3c2CCC(F)(F)C3)CC1', 'pIC50', 8.31);

---

experimental_target: IDO1 (Homo sapiens)
test: IDO1 Human Whole blood Assay
Assay type: cell-based
Set-up: Human whole blood was drawn in sodium heparin coated tubes from healthy internal donors; from tissue; host or cells: human whole blood from healthy donors, stimulated with LPS and IFNγ
conditions: LPS and IFNγ stimulated, 18 h, read-out: Human Whole Blood Potency, IC50
Below, each entry is listed alongside its reported log10 of IC50.
property_measured: log10 of IC50 (log10 of the value in nM)

INSERT INTO results (compound, observed_result) VALUES
  ('Cc1cccc(N2CCN(C(=O)Cn3nc(C(=O)N4CC[C@H](O)[C@H](F)C4)c4c3CCC4)CC2)c1C [Example 92]', 2.41),
  ('Cc1cccc(N2CCN(C(=O)Cn3nc(C(=O)N4CCC(c5cn[nH]c5)CC4)c4c3CCC4)CC2)c1C [Example 142]', 1.68),
  ('Cc1cccc(N2CCN(C(=O)Cn3nc(C(=O)N4CCC5(CCOC5=O)CC4)c4c3CCC4)CC2)c1C [Example 146]', 2.18),
  ('Cc1cccc(N2CCN(C(=O)Cn3nc(C(=O)N4CCC5(CCOC5)CC4)c4c3CCC4)CC2)c1C [Example 93]', 2.26),
  ('Cc1cccc(N2CCN(C(=O)Cn3nc(C(=O)N4CCC(F)(CO)CC4)c4c3C[C@H]3C[C@@H]43)C3(CC3)C2)c1C [Example 362]', 2.53),
  ('Cc1cccc(N2CCN(C(=O)Cn3nc(C(=O)N4CC[C@@H](O)[C@@H](C)C4)c4c3CCC4)CC2)c1C [Example 106]', 2.90),
  ('Cc1cccc(N2CCN(C(=O)Cn3nc(C(=O)N4CCC(O)CC4)c4c3C[C@H]3C[C@@H]43)[C@@H](C)C2)c1C [Example 334]', 3.61);
